Exercise: state measured mean nematode size ln(EXT) (ln) for each of the compounds provided.
Tested on: Caenorhabditis elegans N2
Assay: mean nematode size ln(EXT) after 48 h, plate-adjusted (DMSO control set to 6) (ln(EXT), control-adjusted); higher = larger nematodes / less growth inhibition
Settings: 10 µM; exposure time 48 h
API doc: respond with a numeric literal and nothing else, no unit.

Input: Returns the measured mean nematode size ln(EXT) (ln) for the input compound. Input: COP(=S)(OC)Oc1ccc([N+](=O)[O-])c(C)c1
Output: 5.46

Input: What does the record list as mean nematode size ln(EXT) (ln) for Cc1cccc([N+](=O)[O-])c1C ?
Output: 5.77

Input: Consider the compound shown here: O=C(OCCCCCCOC(=O)c1ccccc1)c1ccccc1 [1,6-Hexanediol dibenzoate] What is its recorded mean nematode size ln(EXT) (ln)?
Output: 5.68
